For each record, write down the corresponding kon.
molecular target: T1, human CD3E&G complex (Sino Biological Inc., CT041-H0305H) (human, UniProt P07766 23-126; P09693 23-116); test: BLI, antibody on sensor
T1 construct: bought heterodimer; also called human CD3E&G antigen
T1 sequence (P07766 23-126, chain 1 of 2): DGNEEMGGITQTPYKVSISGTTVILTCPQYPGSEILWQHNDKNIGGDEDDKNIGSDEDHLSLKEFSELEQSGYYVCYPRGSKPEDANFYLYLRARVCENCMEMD
T1 sequence (P09693 23-116, chain 2 of 2): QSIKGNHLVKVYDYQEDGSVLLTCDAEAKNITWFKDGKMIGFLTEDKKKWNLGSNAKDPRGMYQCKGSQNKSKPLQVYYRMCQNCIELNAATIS
The answer is to be given in M⁻¹ s⁻¹; state only the numeric part.

The binder hzsp34.81 (antibody, human IgG1, lambda, L234A L235A, V domains shown, CDR mutant of hzsp34.24; IgG1 L234A L235A, lambda) VH: EVQLVESGGGLVQPGGSLKLSCAASGFTFNTYAMNWVRQASGKGLEWVGRISSKYNNYATYYADSVKDRFTISRDDSKSTLYLQMNSLKTEDTAVYYCARHGNFGQSYVSWFAYWGQGTTVTVSS VL: QAVVTQEPSLTVSPGGTVTLTCRSSTGAVTTSNYANWVQQKPGQAPRGLIGGTNKRAPGVPARFSGSLLGDKAALTLLGAQPEDEAEYYCALWYSNLWVFGQGTKLTVLG showed kon equal to 142000

The binder hzsp34.82 (antibody, human IgG1, lambda, L234A L235A, V domains shown, CDR mutant of hzsp34.24; IgG1 L234A L235A, lambda) VH: EVQLVESGGGLVQPGGSLKLSCAASGFTFNTYAMNWVRQASGKGLEWVGRIRLKYNNYATYYADSVKDRFTISRDDSKSTLYLQMNSLKTEDTAVYYCARHGNFGQSYVSWFAYWGQGTTVTVSS VL: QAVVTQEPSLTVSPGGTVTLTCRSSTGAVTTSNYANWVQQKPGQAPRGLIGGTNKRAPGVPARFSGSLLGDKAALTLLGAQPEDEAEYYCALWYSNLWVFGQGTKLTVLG showed kon equal to 159000
